- test: EPSA
- Assay type: physicochemical
- experimental conditions: EPSA
assay readout: EPSA

>>> reported_result("CC(=O)N[C@@H](CCCCN=[N+]=[N-])C(=O)NCCC(=O)N[C@@H](CC(C)C)C(=O)N[C@H](C(=O)N[C@@H](Cc1ccccc1)C(=O)N[C@@]1(C)CCCCCCC=CCCC[C@@](C)(C(=O)N[C@@H](CO)C(=O)N[C@@H](C)C(=O)N[C@@H](C)C(N)=O)NC(=O)[C@H](CC2CCC2)NC(=O)[C@H](CCC(N)=O)N(C)C(=O)[C@H](C)NC(=O)[C@H](Cc2c[nH]c3ccccc23)NC(=O)[C@H](Cc2ccc(O)cc2)NC(=O)[C@H](CCC(=O)O)NC1=O)[C@@H](C)O")
"183 A^2"

====

- System: p53 responsive β-lactamase reporter in HCT116 cells
- test: cells
- Type: cell-based
- experimental conditions: 0% FBS 4Hr; read-out: p53 reporter assay: EC50
Positions of bridges follow the written chain, without caps; N, C: chain ends. Non-standard residues stand in square brackets, D forms with d. Residues, ends and D or L forms follow the SMILES beside them. R5 = C=CCCC[C@@](C)(N)C(=O)O
Criterion: EC50 strictly under 7 µM. Met: satisfied. Not met: not satisfied.

>>> category("CC(=O)N[C@@H](CCCCN=[N+]=[N-])C(=O)NCCC(=O)N[C@@H](CC(C)C)C(=O)N[C@H](C(=O)N[C@@H](Cc1ccccc1)C(=O)N[C@]1(C)CCCCCCn2cc(nn2)CCC[C@@](C)(C(=O)N[C@@H](CO)C(=O)N[C@@H](C)C(=O)N[C@@H](C)C(N)=O)NC(=O)[C@H](CC2CCC2)NC(=O)[C@H](CCC(N)=O)NC(=O)[C@H](C)NC(=O)[C@H](Cc2c[nH]c3ccccc23)NC(=O)[C@H](Cc2ccc(O)cc2)NC(=O)[C@H](CCC(=O)O)NC1=O)[C@@H](C)O")
"satisfied"
>>> category("CC(=O)N[C@H](C(=O)N[C@@H](CO)C(=O)N[C@@H](Cc1ccccc1)C(=O)N[C@]1(C)CCCC=CCCC[C@](C)(C(=O)N[C@@H](CC(C)C)C(=O)N[C@@H](CC(C)C)C(=O)N2CCC[C@H]2C(=O)N[C@@H](CCC(=O)O)C(=O)N[C@@H](CC(N)=O)C(=O)N[C@@H](Cc2ccccc2)C(N)=O)NC(=O)[C@H](Cc2c[nH]c3ccccc23)NC(=O)[C@H](Cc2ccc(O)cc2)NC(=O)[C@H](CCC(=O)O)NC1=O)[C@@H](C)O [MP-078] (Ac-TSF[R5]EYW[R5]LLPENF-NH2; staple 4-8)")
"not satisfied"
>>> category("CC(=O)N[C@H](C(=O)N[C@@H](CO)C(=O)N[C@@H](Cc1ccccc1)C(=O)N[C@]1(C)CCCC=CCCC[C@](C)(C(=O)N[C@@H](CC(C)C)C(=O)N[C@@H](CC(C)C)C(=O)N2CCC[C@H]2C(=O)N[C@@H](CCC(=O)O)C(=O)N[C@@H](CC(N)=O)C(=O)N[C@@H](Cc2ccc(O)cc2)C(N)=O)NC(=O)[C@H](Cc2c[nH]c3ccccc23)NC(=O)[C@H](Cc2ccc(O)cc2)NC(=O)[C@H](CCC(=O)O)NC1=O)[C@@H](C)O [MP-2082] (Ac-TSF[R5]EYW[R5]LLPENY-NH2; staple 4-8)")
"not satisfied"
>>> category("CC(=O)N[C@H](C(=O)N[C@@H](CO)C(=O)NC(C)(Cc1ccccc1)C(=O)N[C@@H]1CCCCCCC=CCCC[C@@H](C(N)=O)NC(=O)C(C)(CC(C)C)NC(=O)[C@H](CC(C)C)NC(=O)[C@H](C)NC(=O)[C@H](Cc2c[nH]c3ccccc23)NC(=O)[C@H](Cc2ccc(O)cc2)NC(=O)[C@H](CCC(=O)O)NC1=O)[C@@H](C)O (stereo partly drawn)")
"not satisfied"
>>> category("CC(=O)N[C@H](C(=O)N[C@@H](CO)C(=O)N[C@@H](Cc1ccccc1)C(=O)N[C@]1(C)CCCCCCC=CCCC[C@@](C)(C(=O)N[C@H](CCC(=O)O)C(=O)N[C@@H](CC(N)=O)C(=O)N[C@@H](Cc2ccccc2)C(N)=O)NC(=O)[C@H](CC(C)C)NC(=O)[C@H](CC(C)C)NC(=O)[C@H](C)NC(=O)[C@H](Cc2c[nH]c3ccccc23)NC(=O)[C@H](Cc2ccc(O)cc2)NC(=O)[C@H](CCC(=O)O)NC1=O)[C@@H](C)O")
"satisfied"
>>> category("CC(=O)N[C@@H](CCCCN)C(=O)NCCCCCC(=O)N[C@H](C(=O)N[C@@H](CO)C(=O)N[C@@H](Cc1ccccc1)C(=O)N[C@]1(C)CCCCCCC=CCCC[C@@](C)(C(=O)N[C@@H](CCC(=O)O)C(=O)N[C@@H](CC(N)=O)C(=O)N[C@@H](Cc2ccccc2)C(N)=O)NC(=O)[C@H](CC(C)C)NC(=O)[C@H](CC(C)C)NC(=O)[C@H](C)NC(=O)[C@H](Cc2c[nH]c3ccccc23)NC(=O)[C@H](Cc2ccc(O)cc2)NC(=O)[C@H](CCC(=O)O)NC1=O)[C@@H](C)O [MP-6210]")
"not satisfied"
>>> category("CC(=O)N[C@H](C(=O)N[C@@H](CO)C(=O)N[C@@H](Cc1ccccc1)C(=O)N[C@]1(C)CCCCCCC=CCCC[C@@](C)(C(N)=O)NC(=O)[C@H](CC(C)C)NC(=O)[C@H](CC(C)C)NC(=O)[C@H](C)NC(=O)[C@H](Cc2c[nH]c3ccccc23)NC(=O)[C@H](Cc2ccc(O)cc2)NC(=O)[C@H](CCC(=O)O)NC1=O)[C@@H](C)O")
"satisfied"
>>> category("CC(=O)N[C@@H](CC(C)C)C(=O)N[C@H](C(=O)N[C@@H](Cc1ccccc1)C(=O)N[C@]1(C)CCCCCCC=CCCC[C@@](C)(C(=O)N[C@@H](CO)C(=O)N[C@@H](C)C(=O)N[C@@H](C)C(N)=O)NC(=O)[C@H](CC(C)C)NC(=O)[C@H](CCC(N)=O)NC(=O)[C@H](C)NC(=O)[C@H](Cc2c[nH]c3ccccc23)NC(=O)[C@H](Cc2ccc(O)cc2)NC(=O)[C@H](CCC(=O)O)NC1=O)[C@@H](C)O [MP-154]")
"satisfied"
>>> category("CC(=O)N[C@@H](CCCCN)C(=O)NCCCCCC(=O)N[C@H](C(=O)N[C@@H](CO)C(=O)N[C@@H](Cc1ccccc1)C(=O)N[C@]1(C)CCCCCCC=CCCC[C@@](C)(C(=O)N[C@@H](CCC(=O)O)C(=O)N[C@@H](CC(N)=O)C(=O)N[C@@H](Cc2ccccc2)C(N)=O)NC(=O)[C@H](CC(C)C)NC(=O)[C@H](CC(C)C)NC(=O)[C@H](C)NC(=O)[C@H](Cc2c[nH]c3ccccc23)NC(=O)[C@H](Cc2ccc(O)cc2)NC(=O)[C@H](CCC(=O)O)NC1=O)[C@@H](C)O [MP-82094]")
"satisfied"
